measurement_protocol: Half-life in male Sprague-Dawley rat at 1 mg/kg, iv measured after 8 hrs by LC-MS/MS analysis
test_conditions: in vivo
experimental_endpoint: half-life at 8 h (h)

CCN1C(=O)N([C@H]2CC[C@H](C(F)(F)F)CC2)C(=O)C12CCN(CC1CCOCC1)CC2 | 12

I. CCN1C(=O)N(c2ccc(C(F)(F)F)cc2)C(=O)C12CCN(CC1CCOCC1)CC2
II. CCN1C(=O)N(c2ccc(C3CC3)cc2)C(=O)C12CCN(CC1CCOCC1)CC2
Exercise: Form field 'greater half-life at 8 h' accepts I or II ; which applies? Field: selected label. Fill in the label of the entry you choose.
Solution: I
(I: 16 h, II: 4.4 h)
